molecular target: Potassium voltage-gated channel subfamily KQT member 1 (Homo sapiens); test: KCNQ1 potassium channel potentiators, confirmation, FluxOR thallium flux, CHO cells, duplicates (AID 493007); conditions: KCNQ1 cell line, FluxOR thallium flux fluorescence, at 10 µM, % of reference activator effect, buffer zero;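 as to Outcome: cells depolarized by a potassium plus thallium sulfate stimulus after compound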
The source made the active and inactive calls.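 The calls were made as follows: active = potentiation averaged over duplicate wells exceeding buffer-only control mean by more than 3 SD; inactive = the rest.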
Outcome codes: label 1 (active), label 0 (inactive)

[[record]]
structure_notation = "CSC(=S)N/N=C(\\C)c1ccccc1"
assigned_category = "label 1"

[[record]]
structure_notation = "C=CCn1c(=S)[nH]c2scc(-c3ccc(C)o3)c2c1=O"
assigned_category = "label 1"

[[record]]
structure_notation = "CCOc1ccc(-n2c(=S)sc3c(=O)n(-c4ccccc4)c(SC)nc32)cc1"
assigned_category = "label 0"

[[record]]
structure_notation = "O=S(=O)(Nc1cccnc1)c1ccc(Cl)cc1"
assigned_category = "label 0"

[[record]]
structure_notation = "CCOC(=O)CC1=NS(=O)(=O)c2ccccc2N1"
assigned_category = "label 0"


----------
assay: thallium flux activation in parental CHO cells, counter-screen for KCNQ1 potentiator project (AID 493006); conditions: parental CHO-K1 cells, FluxOR thallium flux, at 10 µM;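 as to activation: fluorescence ratio of max minus min over baseline after K+ and Tl+ depolarization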
Active and inactive are the calls of the source.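 How the source made its calls: active means duplicate-averaged activation above buffer control mean plus 5 SD of those controls; inactive means the rest.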
Outcome codes: active, inactive

[[record]]
compound = "COc1cccc(C=O)c1OCCCOc1cccc2cccnc12"
assigned_category = "inactive"

[[record]]
compound = "CCOc1ccc2nc(/N=C/c3c(C)[nH]n(-c4ccc(C)cc4)c3=O)sc2c1"
assigned_category = "active"

[[record]]
compound = "O=C(NNC(=O)c1ccc2ccccc2c1O)c1cccs1"
assigned_category = "inactive"

[[record]]
compound = "O=C(CNC(=O)C(c1ccccc1)c1ccccc1)N/N=C/c1ccc(O)cc1O"
assigned_category = "inactive"

[[record]]
compound = "O=C(NC(=S)N1CCc2ccccc21)c1ccccc1Cl"
assigned_category = "active"

[[record]]
compound = "CC1CCCC(NC(=S)NC(=O)c2ccccc2Br)C1C (configuration not stated)"
assigned_category = "inactive"

[[record]]
compound = "CCCN(Cc1ccccc1)C(=S)NC(=O)c1ccccc1[N+](=O)[O-]"
assigned_category = "active"

[[record]]
compound = "Cc1ccc(C(=O)NC(=S)NNC(=O)COc2ccc([N+](=O)[O-])cc2)cc1"
assigned_category = "inactive"

[[record]]
compound = "CC(=O)c1c(C)[nH]c(-c2ccccc2)nc1=S"
assigned_category = "active"

[[record]]
compound = "Cc1nc(SCC(=O)NCC2CCCO2)c2c3c(sc2n1)CCCC3 (configuration not stated)"
assigned_category = "active"

[[record]]
compound = "CC1Cc2cc(/C=C3/SC(=S)NC3=O)ccc2O1 (configuration not stated)"
assigned_category = "inactive"

[[record]]
compound = "Cc1ccc(Nc2ccc([N+](=O)[O-])cn2)cc1Cl"
assigned_category = "inactive"

[[record]]
compound = "CCOc1ccc(NC(=O)Cn2nnc(-c3ccccc3NC(=O)c3cccs3)n2)cc1"
assigned_category = "inactive"

[[record]]
compound = "Cc1ccc(-c2nnc(SCC(=O)N/N=C/c3ccccc3C(=O)O)n2-c2ccc(Cl)cc2)cc1"
assigned_category = "inactive"

[[record]]
compound = "O=C(c1nnsc1S(=O)c1ccc(Cl)cc1)N1CCOCC1 (configuration not stated)"
assigned_category = "inactive"

[[record]]
compound = "Cc1nn(CC2CC2)c(=O)n1-c1ccc(F)cc1"
assigned_category = "inactive"

[[record]]
compound = "CNC(=O)CSc1nc2c(c(=O)n(C)c(=O)n2C)n1Cc1ccc(C)cc1"
assigned_category = "inactive"

[[record]]
compound = "CC1CCCCC1NC(=S)NC(=O)c1sc2ccccc2c1Cl (configuration not stated)"
assigned_category = "inactive"

[[record]]
compound = "O=C(N/C(=C\\c1ccc([N+](=O)[O-])cc1)C(=O)N1CCCCC1)c1ccco1"
assigned_category = "inactive"

[[record]]
compound = "O=C(NC(=S)Nc1ccccc1Cl)c1ccco1"
assigned_category = "active"

[[record]]
compound = "Cc1cccc(OCc2n[nH]c(=S)n2C2CCCCC2)c1"
assigned_category = "inactive"

[[record]]
compound = "COc1cccc(NC(=O)c2cncs2)c1"
assigned_category = "inactive"


----------
assay: thallium flux activation in parental CHO cells, counter-screen for KCNQ1 potentiator project (AID 493006); conditions: parental CHO-K1 cells, FluxOR thallium flux, at 10 µM;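 as to activation: fluorescence ratio of max minus min over baseline after K+ and Tl+ depolarization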
Active and inactive are the calls of the source.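 The calls were made as follows: active = duplicate-averaged activation above buffer control mean plus 5 SD of those controls; inactive = the rest.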
Outcome codes: label 1 for active, label 0 for inactive

[[record]]
compound = "Nc1c(Cl)cc(C2=NCCn3nc4cc(C(F)(F)F)ccc4c32)cc1Cl"
assigned_category = "label 0"

[[record]]
compound = "O=c1c2ccccc2nc(-c2ccc(Cl)c(Cl)c2)n1O"
assigned_category = "label 1"

[[record]]
compound = "O=C(NC(=S)N1CCc2ccccc21)c1ccccc1Br"
assigned_category = "label 1"

[[record]]
compound = "COC(=O)c1ccc(N2CCN(S(=O)(=O)c3ccc(Br)cc3)CC2)c([N+](=O)[O-])c1"
assigned_category = "label 0"

[[record]]
compound = "CCCc1cc(=O)[nH]c(SCC(=O)Nc2ccc(Br)cc2Br)n1"
assigned_category = "label 0"

[[record]]
compound = "Cc1ccc(-n2ncc3c(=O)n(CC(=O)N4CCN(c5ccccc5F)CC4)cnc32)cc1C"
assigned_category = "label 0"

[[record]]
compound = "Cc1ccc(-c2c(C(=O)O)c3ccccc3[nH]c2=O)cc1"
assigned_category = "label 0"

[[record]]
compound = "CCCCCC/C(C)=C1/SC(=S)NC1=O"
assigned_category = "label 1"

[[record]]
compound = "CCN1CCN(C(c2ccccn2)c2c(NC(=O)c3ccccc3)sc(C)c2C)CC1 (centres undefined)"
assigned_category = "label 0"


----------
target: Potassium voltage-gated channel subfamily KQT member 2 (Rattus norvegicus); assay: rat KCNQ2 channel potentiation, selectivity assay for KCNQ1 potentiator project, KCNQ2-CHO-K1 cells (AID 493009); settings: FluxOR thallium flux fluorescence, at 10 µM, scaled: buffer 0, activator control 100;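 also: assay conditions were tuned for KCNQ1 rather than KCNQ2 modulators; signal is max minus min fluorescence divided by baseline after thallium stimulus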
Active and inactive are the calls of the source.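 The calls were made as follows: active = mean duplicate potentiation above the buffer control mean plus 5 SD of buffer wells; inactive = the rest.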
Outcome codes: yes (1) (active), no (0) (inactive)

[[record]]
molecule = "CN(C)c1ccc(C(=O)Nc2nnc(C3=COCCO3)o2)cc1"
assigned_category = "no (0)"

[[record]]
molecule = "O=C(O)c1c2c(nc3ccccc13)/C(=C/c1cccc([N+](=O)[O-])c1)CCC2"
assigned_category = "yes (1)"

[[record]]
molecule = "CC(C)(C)NC(=O)C(=O)NNC(=O)COc1ccc(Br)cc1"
assigned_category = "yes (1)"

[[record]]
molecule = "O=C(NC(=S)N(Cc1ccccc1)Cc1ccccc1)c1ccccc1F"
assigned_category = "yes (1)"

[[record]]
molecule = "COc1ccc(Cl)cc1NC(=O)CNc1ccc(F)cc1C"
assigned_category = "no (0)"

[[record]]
molecule = "CCc1ccc(C2c3[nH]c4ccccc4c3CCN2C(=O)CNC(N)=O)cc1 (centres undefined)"
assigned_category = "yes (1)"

[[record]]
molecule = "CC1=NN(C(=O)c2csc(C(C)C)c2)C(O)(C(F)(F)F)C1 (centres undefined)"
assigned_category = "yes (1)"

[[record]]
molecule = "CN(C)CCNc1nc2sc3c(c2c(=O)n1CCc1ccccc1)CCCCC3"
assigned_category = "no (0)"

[[record]]
molecule = "Fc1ccccc1Nc1nc(Cl)nc(Cl)n1"
assigned_category = "no (0)"

[[record]]
molecule = "CCOC(=O)c1ccc(Nc2nc(N3CCOCC3)nc(N3CCOCC3)n2)cc1"
assigned_category = "no (0)"

[[record]]
molecule = "Cn1ccnc1SCC(=O)NC1CC1"
assigned_category = "no (0)"

[[record]]
molecule = "CCC1(c2ccc(Cl)cc2)NC(=S)N(c2ccccc2)N1 (centres undefined)"
assigned_category = "yes (1)"

[[record]]
molecule = "O=C(CN(c1ccc(Cl)cc1)S(=O)(=O)c1ccc(Cl)c([N+](=O)[O-])c1)NCCc1ccc(F)cc1"
assigned_category = "no (0)"

[[record]]
molecule = "CN1C=CC=C/C1=C1\\SC(=S)N(C2CCCCC2)C1=O"
assigned_category = "no (0)"

[[record]]
molecule = "COc1ccc(C(=O)N2CCC(n3nccc3NC(=O)C3CCOC3)CC2)cc1 (centres undefined)"
assigned_category = "no (0)"

[[record]]
molecule = "S=c1[nH]c2cc(-c3ccccc3)ccc2o1"
assigned_category = "yes (1)"

[[record]]
molecule = "CCCOc1ccc(C(=O)NNC(=S)NC(=O)c2cc(-c3ccccc3)nc3ccccc23)cc1"
assigned_category = "no (0)"

[[record]]
molecule = "CCOc1ccc(C(C#N)N2CCOCC2)cc1OC (centres undefined)"
assigned_category = "no (0)"

[[record]]
molecule = "OCCN1CCN(Cc2cc(Br)cc(Br)c2O)CC1"
assigned_category = "no (0)"

[[record]]
molecule = "Oc1c(Cl)cc(Cl)c2cccnc12"
assigned_category = "yes (1)"

[[record]]
molecule = "CCOC(=O)c1cnc2c(C)c(Cl)ccc2c1N1CCN(CC)CC1"
assigned_category = "no (0)"

[[record]]
molecule = "Cc1cc(C(=O)NCc2ccc(S(N)(=O)=O)cc2)ccc1[N+](=O)[O-]"
assigned_category = "no (0)"

[[record]]
molecule = "CNC(=O)c1nnsc1S(=O)c1ccc(Cl)cc1 (centres undefined)"
assigned_category = "no (0)"

[[record]]
molecule = "O=C(CSc1ccccn1)N1CCN(S(=O)(=O)c2ccc(Cl)cc2)CC1"
assigned_category = "no (0)"

